biological target: PRMT5/MEP50 (Homo sapiens); construct: Flag-PRMT5; made in house; host or cells: Spodoptera frugiperda (SF9), baculovirus; assay: PRMT5 Biochemical Assay (PRMT5/MEP50 enzyme assay on histone H4 peptide substrate, 3H-SAM Flashplate); conditions: PRMT5 biochemical assay; read-out: Biochemical IC50
quantity: IC50

Use the examples below as a reference point.
Query: Suppose we examine the molecule N#Cc1cccc(C(=O)CC2NC(N3CCN(c4ccccc4)CC3)=NC2=O)c1 (stereo not shown) ; what IC50 value has been reported?
Result: 1000 to 10000 nM

Query: Cool, now CC(CCCN(CCN)C[C@H]1O[C@@H](n2cnc3c(N)ncnc32)[C@H](O)[C@@H]1O)C(=O)O (stereo partly shown)
Result: < 100 nM

Query: Can you handle CC(=O)c1ccc(NC(=O)CC2NC(N3CCN(Cc4ccccc4)CC3)=NC2=O)cc1 (stereo not shown) next?
Result: 1000 to 10000 nM

Query: Next molecule up: CN(CCNCCc1ccccc1)C[C@H]1O[C@@H](n2cnc3c(N)ncnc32)[C@H](O)[C@@H]1O
Result: 101 to 1000 nM

Query: Try this molecule next: CCOc1c(C)cc(S(=O)(=O)NCC2CCN(Cc3cc4cc(OC)ccc4nc3Cl)CC2)cc1C
Result: 101 to 1000 nM

New cases:
Query: Bench note: what IC50 did CN(CCCN)C[C@H]1O[C@@H](n2cnc3c(N)ncnc32)[C@H](O)[C@@H]1O show?
Result: < 100 nM

Query: // query: CN(CCNc1ccccn1)C[C@H]1O[C@@H](n2cnc3c(N)ncnc32)[C@H](O)[C@@H]1O
Result: 101 to 1000 nM

* * *

Some compounds, each annotated with its measured IC50.
biological target: PRMT5/MEP50 (Homo sapiens, UniProt O14744); construct: Flag-PRMT5; made in house; host or cells: Spodoptera frugiperda (SF9), baculovirus; assay: PRMT5 Biochemical Assay (PRMT5/MEP50 enzyme assay on histone H4 peptide substrate, 3H-SAM Flashplate); settings: PRMT5 biochemical assay; read-out: Biochemical IC50
Sequence (O14744 with tags, fused parts or gaps): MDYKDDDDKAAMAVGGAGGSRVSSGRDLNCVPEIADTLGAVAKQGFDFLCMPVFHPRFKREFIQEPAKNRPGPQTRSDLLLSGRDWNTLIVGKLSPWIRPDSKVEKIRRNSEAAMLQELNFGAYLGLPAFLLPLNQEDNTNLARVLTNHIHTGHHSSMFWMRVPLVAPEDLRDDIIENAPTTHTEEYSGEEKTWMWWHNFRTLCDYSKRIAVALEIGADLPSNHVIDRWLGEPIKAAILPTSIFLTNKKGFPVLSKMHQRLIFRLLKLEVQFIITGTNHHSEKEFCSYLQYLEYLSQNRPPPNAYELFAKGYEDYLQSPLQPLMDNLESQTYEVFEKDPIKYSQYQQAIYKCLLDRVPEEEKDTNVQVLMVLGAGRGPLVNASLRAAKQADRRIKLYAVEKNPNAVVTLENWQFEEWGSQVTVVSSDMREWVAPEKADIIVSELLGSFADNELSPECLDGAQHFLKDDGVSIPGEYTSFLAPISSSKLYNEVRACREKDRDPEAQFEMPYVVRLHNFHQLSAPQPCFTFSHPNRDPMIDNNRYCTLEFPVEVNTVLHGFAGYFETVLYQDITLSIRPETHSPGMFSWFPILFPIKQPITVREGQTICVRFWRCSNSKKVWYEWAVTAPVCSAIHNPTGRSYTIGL
Sequence (Q9BQA1 with tags, fused parts or gaps partner limits assumed): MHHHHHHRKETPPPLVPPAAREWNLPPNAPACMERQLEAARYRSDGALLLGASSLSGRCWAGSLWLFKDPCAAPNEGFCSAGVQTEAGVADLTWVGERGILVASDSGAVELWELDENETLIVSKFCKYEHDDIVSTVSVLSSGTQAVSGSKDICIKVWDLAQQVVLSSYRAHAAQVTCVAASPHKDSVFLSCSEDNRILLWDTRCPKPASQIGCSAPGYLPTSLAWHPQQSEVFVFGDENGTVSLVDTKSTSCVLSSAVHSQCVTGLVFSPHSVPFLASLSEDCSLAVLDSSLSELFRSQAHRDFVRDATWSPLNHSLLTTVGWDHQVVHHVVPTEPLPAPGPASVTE

Query: Can you look up the measured IC50 of CN(C)c1cccc2c(S(=O)(=O)NC3CC(=O)N(c4ccccc4)C3)cccc12 (stereo not drawn) [Compound 1-4] for me?
Result: 0.101 to 1 µM

Next:
Query: Given NCc1ncc(CCNC(=O)c2ccccc2)n1Cc1ccccc1 [Compound 7-13] , state its recorded IC50.
Result: 10 to 50 µM

Query: Same for CC(C)c1ccc(NC(=O)CC2NC(N3CCN(c4ccccn4)CC3)=NC2=O)cc1 (stereo not drawn) [Compound 16-14]
Result: 1 to 10 µM

Query: Similarly, CCCCNCCN(C)C[C@H]1O[C@@H](n2cnc3c(N)ncnc32)[C@H](O)[C@@H]1O [Compound 68-1] ?
Result: < 0.1 µM

Query: Same question for COc1cccc([C@H](C)NCCN(C)C[C@H]2O[C@@H](n3cnc4c(N)ncnc43)[C@H](O)[C@@H]2O)c1 [Compound 2-1] please.
Result: 0.101 to 1 µM

Query: Can you check CCOc1c(C)cc(S(=O)(=O)NCC2CCN(Cc3ccccc3-c3ccccc3)CC2)cc1C [Compound 7-3] next?
Result: 0.101 to 1 µM

Query: Another compound to look at: CN(C)c1cccc2c(S(=O)(=O)NC3CC(=O)N(c4ccccc4N)C3)cccc12 (stereo not drawn) [Compound 7-4]
Result: < 0.1 µM

Query: Continue with O=C(CC1NC(N2CCN(c3ccccc3)CC2)=NC1=O)c1ccccc1 (stereo not drawn) [Compound 37-14]
Result: 0.101 to 1 µM

Query: Then what about the compound CN(C)c1cccc2c(S(=O)(=O)NC3CC(=O)N(c4cccc(F)c4)C3)cccc12 (stereo not drawn) [Compound 6-4] ?
Result: 0.101 to 1 µM

Reference source: patent US20170198006A1
